biological target: Recombinant purified human BTK (Homo sapiens (Human)); experiment: BTK kinase inhibitory activity (ADP Glo assay); conditions: read-out: BTK IC50, ATP 10 uM, 1 hour 30° C.
Sequence (Q06187 whole entry): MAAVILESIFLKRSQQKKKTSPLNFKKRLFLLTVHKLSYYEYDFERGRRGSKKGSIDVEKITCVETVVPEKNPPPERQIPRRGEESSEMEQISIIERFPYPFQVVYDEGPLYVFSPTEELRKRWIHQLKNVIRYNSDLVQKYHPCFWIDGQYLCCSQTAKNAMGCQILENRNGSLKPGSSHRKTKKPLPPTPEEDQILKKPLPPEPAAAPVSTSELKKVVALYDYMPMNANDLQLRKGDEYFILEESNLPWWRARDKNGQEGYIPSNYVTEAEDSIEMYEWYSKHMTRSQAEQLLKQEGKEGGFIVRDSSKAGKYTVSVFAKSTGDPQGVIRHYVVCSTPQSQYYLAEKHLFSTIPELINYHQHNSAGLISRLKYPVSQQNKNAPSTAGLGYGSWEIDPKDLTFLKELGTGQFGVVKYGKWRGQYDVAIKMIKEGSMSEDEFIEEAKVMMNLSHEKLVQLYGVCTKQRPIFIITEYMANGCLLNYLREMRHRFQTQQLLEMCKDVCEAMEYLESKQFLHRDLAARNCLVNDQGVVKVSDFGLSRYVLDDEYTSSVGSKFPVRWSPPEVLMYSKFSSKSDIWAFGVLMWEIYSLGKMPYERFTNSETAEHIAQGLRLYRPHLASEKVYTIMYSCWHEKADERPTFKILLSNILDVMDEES
Readout Name: IC50 (nM)

C=CC(=O)N1CC[C@@H](F)[C@@H](Nc2nc(Nc3cnn(CC)c3)nc3[nH]cc(C#N)c23)C1; 0.9
C=CC(=O)N1CC[C@@H](F)[C@@H](Nc2nc(Nc3cnn(CC(F)F)c3)nc3[nH]cc(C#N)c23)C1; 0.8

(a) C=CC(=O)N1CC[C@@H](F)[C@@H](Nc2nc(Nc3cnn(CC)c3)nc3[nH]cc(Cl)c23)C1
(b) C=CC(=O)N1CC[C@@H](F)[C@@H](Nc2nc(Nc3cnoc3)nc3[nH]cc(C#N)c23)C1
Ask: Which entry has a larger number for IC50, a or b ? Field: selected label. Fill in the label of the entry you choose.
Result: b

(1) C=CC(=O)N1CC[C@@H](F)[C@@H](Nc2nc(Nc3cnoc3)nc3[nH]cc(Cl)c23)C1
(2) C=CC(=O)N1CC[C@@H](F)[C@@H](Nc2nc(Nc3cnn(C4CC4)c3)nc3[nH]cc(C#N)c23)C1
(3) C=CC(=O)N1CC[C@@H](F)[C@@H](Nc2nc(Nc3cnoc3)nc3[nH]cc(C)c23)C1
Ask: Rank the 3 compounds: largest IC50 first, smallest last. Order the labels as requested and give them as your answer.
Result: 3, 1, 2

(P) C=CC(=O)N1CC[C@@H](F)[C@@H](Nc2nc(Nc3cnn(CC)c3)nc3[nH]cc(C)c23)C1
(Q) C=CC(=O)N1CC[C@H](F)[C@@H](Nc2nc(Nc3cnn(CC)c3)nc3[nH]cc(Cl)c23)C1
Ask: Between P and Q , whose recorded IC50 is greater? Kindly state the label of the option you pick.
Result: P

(1) C=CC(=O)N1CC[C@@H](F)[C@@H](Nc2nc(Nc3cnsc3)nc3[nH]cc(Cl)c23)C1
(2) C=CC(=O)N1CC[C@@H](F)[C@@H](Nc2nc(Nc3cnn(CC(F)F)c3)nc3[nH]cc(Cl)c23)C1
Ask: // compare measured IC50 between 1 and 2 ; output the lower one Please identify the chosen entry by its label.
Result: 2

###

target: Recombinant purified human JAK3 (Homo sapiens (Human)); assay: JAK3 kinase inhibitory activity (ADP Glo assay); conditions: read-out: JAK3 IC50, ATP 5 uM, 1 hour 30° C.
Sequence (P52333 whole entry): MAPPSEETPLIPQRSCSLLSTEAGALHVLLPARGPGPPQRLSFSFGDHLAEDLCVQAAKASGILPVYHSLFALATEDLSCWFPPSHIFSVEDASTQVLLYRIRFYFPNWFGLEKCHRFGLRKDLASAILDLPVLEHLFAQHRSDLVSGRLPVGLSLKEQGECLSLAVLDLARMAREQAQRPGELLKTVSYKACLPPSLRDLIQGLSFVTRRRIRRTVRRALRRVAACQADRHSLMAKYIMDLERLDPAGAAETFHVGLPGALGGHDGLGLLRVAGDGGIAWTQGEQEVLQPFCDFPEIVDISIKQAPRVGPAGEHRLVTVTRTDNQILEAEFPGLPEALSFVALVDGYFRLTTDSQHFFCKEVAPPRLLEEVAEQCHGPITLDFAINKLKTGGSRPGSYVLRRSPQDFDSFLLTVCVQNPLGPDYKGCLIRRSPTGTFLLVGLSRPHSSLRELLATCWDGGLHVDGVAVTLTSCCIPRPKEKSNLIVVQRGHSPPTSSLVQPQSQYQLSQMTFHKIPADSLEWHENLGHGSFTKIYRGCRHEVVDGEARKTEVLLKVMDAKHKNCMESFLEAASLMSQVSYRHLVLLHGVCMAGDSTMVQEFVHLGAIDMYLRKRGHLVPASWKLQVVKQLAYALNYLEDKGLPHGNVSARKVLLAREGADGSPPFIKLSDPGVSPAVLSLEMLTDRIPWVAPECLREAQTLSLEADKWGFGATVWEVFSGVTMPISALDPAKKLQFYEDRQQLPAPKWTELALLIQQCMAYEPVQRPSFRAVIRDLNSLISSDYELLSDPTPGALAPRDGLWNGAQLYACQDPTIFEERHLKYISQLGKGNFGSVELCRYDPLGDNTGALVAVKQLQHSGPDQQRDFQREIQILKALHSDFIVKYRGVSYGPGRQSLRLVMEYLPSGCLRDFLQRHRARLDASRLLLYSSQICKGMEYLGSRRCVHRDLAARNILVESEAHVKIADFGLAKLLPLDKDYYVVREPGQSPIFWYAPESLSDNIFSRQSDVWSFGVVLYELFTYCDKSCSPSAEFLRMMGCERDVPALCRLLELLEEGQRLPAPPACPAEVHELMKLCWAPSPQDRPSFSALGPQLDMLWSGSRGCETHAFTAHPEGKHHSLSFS
Readout Name: IC50 (pM)

Examples with answers:
C=CC(=O)N1CC[C@H](F)[C@@H](Nc2nc(Nc3cnn(CC)c3)nc3[nH]cc(Cl)c23)C1; 200
C=CC(=O)N1CC[C@@H](F)[C@@H](Nc2nc(Nc3cnn(C4CC4)c3)nc3[nH]cc(C#N)c23)C1; 300
C=CC(=O)N1CC[C@@H](F)[C@@H](Nc2nc(Nc3cnn(CC(F)F)c3)nc3[nH]cc(C#N)c23)C1; 200
C=CC(=O)N1CC[C@@H](F)[C@@H](Nc2nc(Nc3cnn(CC(F)F)c3)nc3[nH]cc(Cl)c23)C1; 100

(1) C=CC(=O)N1CC[C@@H](F)[C@@H](Nc2nc(Nc3cnoc3)nc3[nH]cc(Cl)c23)C1
(2) C=CC(=O)N1CC[C@@H](F)[C@@H](Nc2nc(Nc3cnoc3)nc3[nH]cc(C)c23)C1
(3) C=CC(=O)N1CC[C@@H](F)[C@@H](Nc2nc(Nc3cnn(C4CC4)c3)nc3[nH]cc(Cl)c23)C1
Ask: Task field, ranking: reported IC50, descending order. A ranking is expressed here by listing the labels in the requested order.
Result: 2, 1, 3
